Provenance of the data: patent US11207312B2

Molecular target: VIM-1 (Pseudomonas aeruginosa (strain ATCC 15692 / DSM 22644 / CIP 104116 / JCM 14847 / LMG 12228 / 1C / PRS 101 / PAO1))
Assay: biochemical
Conditions: CCF2-FA fluorescence assay, 2 hours at 25° C.; read-out: VIM1 IC50
Procedure: The Class B enzyme activities were measured in the presence of the test inhibitor in a fluorescence assay against a commercially available substrate consisting of a cephalosporin core linking 7-hydroxycoumarin to fluorescein (CCF2-FA). […] Fluorescence at 460 nm following excitation at 405 nm was measured. The IC50 value was determined from semi-logarithmic plots of enzyme inhibition versus inhibitor concentration, with a curve generated using a 4-parameter fit.
pIC50: −log10 of the molar value.
Entry flag: rule met if pIC50 reaches 9; rule not met if it does not.

molecule: NC[C@@H](O)CNS(=O)(=O)c1ccc(N[C@H]2C[C@@H](N)C2)c(-c2nnn[nH]2)c1S(N)(=O)=O [Example 143]
assigned.category: rule not met

molecule: NC[C@@H](O)CNS(=O)(=O)c1ccc(N2CCC(CNCCO)CC2)c(-c2nn[nH]n2)c1S(N)(=O)=O [Example 123]
assigned.category: rule met

molecule: NS(=O)(=O)c1c(S(=O)(=O)C2CNC2)ccc(N2CCN(CCO)CC2)c1-c1nnn[nH]1 [Example 54]
assigned.category: rule not met

Confirm if pIC50 reported for the molecule NCC(O)C1CCN(c2ccc(S(=O)(=O)NC[C@H](O)CN)c(S(N)(=O)=O)c2-c2nn[nH]n2)CC1 (stereo partly shown) [Example 132] is 9 or above.
rule met

Is pIC50 for NCCNS(=O)(=O)c1ccc(N2CCN(CCCO)CC2)c(-c2nnn[nH]2)c1S(N)(=O)=O [Example 41] at or above 9?
rule not met

====

List of CL5741 S. marcescens MITC95 IMP values.
test system: Serratia marcescens expressing IMP-1 (CL5741); assay type: cell-based; conditions: with imipenem 1 μg/ml; 95% inhibition of bacterial growth
State just the number; it will be interpreted in µM.

compound: NCCS(=O)(=O)c1ccc(N2CCOCC2)c(-c2nnn[nH]2)c1S(N)(=O)=O [Example 15]
unit.name: µM
quantitative.result: 3.13
--
compound: NC[C@@H](O)CNS(=O)(=O)c1ccc(N2CCC3(CCNC3)C2)c(-c2nn[nH]n2)c1S(N)(=O)=O (stereo partly shown) [Example 133, di-trifluoroacetic acid]
unit.name: µM
quantitative.result: 1.56
--
compound: N[C@@H]1CCCN(c2ccc(S(=O)(=O)C3CNC3)c(S(N)(=O)=O)c2-c2nnn[nH]2)C1 [Example 28]
unit.name: µM
quantitative.result: 6.25
--
compound: NC[C@@H](O)CNS(=O)(=O)c1ccc(NC2CCC(N)C2)c(-c2nn[nH]n2)c1S(N)(=O)=O (stereo partly shown) [compound 184]
unit.name: µM
quantitative.result: 1.56
--
compound: CN(CCO)CCN(C)c1ccc(S(=O)(=O)NC[C@H](O)CN)c(S(N)(=O)=O)c1-c1nn[nH]n1 [Example 136]
unit.name: µM
quantitative.result: 12.50

# return recorded CL5741 S. marcescens MITC95 IMP for input NC[C@@H](O)CNS(=O)(=O)c1ccc(N2CCC(C(N)CO)CC2)c(-c2nn[nH]n2)c1S(N)(=O)=O (single isomer, unassigned) [Example 180]
0.78

Indicate the recorded CL5741 S. marcescens MITC95 IMP value for this compound: NCCC1CCN(c2ccc(S(=O)(=O)N[C@H](CN)CO)c(S(N)(=O)=O)c2-c2nn[nH]n2)CC1 [Example 188]
0.78

====

Recorded IC50 values for a group of compounds are listed next.
target: VIM-1 (Pseudomonas aeruginosa (strain ATCC 15692 / DSM 22644 / CIP 104116 / JCM 14847 / LMG 12228 / 1C / PRS 101 / PAO1), UniProt A0A0F7KYQ8); assay: biochemical; settings: CCF2-FA fluorescence assay, 2 hours at 25° C.; read-out: VIM1 IC50
Record the value in nM, omitting the unit from your answer.

Observe how each entry below is paired with its result.
compound: NC[C@H]1CCCN(c2ccc(S(=O)(=O)N[C@@H]3CCNC3)c(S(N)(=O)=O)c2-c2nnn[nH]2)C1 [Example 82]
IC50, nM: 0.9
//
compound: NC[C@@H](O)CNS(=O)(=O)c1ccc(N2CCC(n3ccnc3)CC2)c(-c2nnn[nH]2)c1S(N)(=O)=O [Example 174]
IC50, nM: 0.07
//
compound: NCC1CCN(c2ccc(S(=O)(=O)N[C@@H]3CCNC3)c(S(N)(=O)=O)c2-c2nnn[nH]2)CC1 [Example 77]
IC50, nM: 0.11

# next compound below
Given the compound NC[C@@H](O)CNS(=O)(=O)c1ccc(N2CC[C@@H](N)[C@H](F)C2)c(-c2nn[nH]n2)c1S(N)(=O)=O [Example 2] , write its reported IC50.
0.17

====

Overview of recorded pIC50 for various compounds
molecular target: VIM-2 (Escherichia coli); assay: biochemical; settings: CCF2-FA fluorescence assay; read-out: VIM2 IC50
pIC50 (log units): -log10 of the concentration in mol/L.

Look over these answered cases.
compound: NCCC1CCN(c2ccc(S(=O)(=O)NC[C@H](O)CN)c(S(N)(=O)=O)c2-c2nn[nH]n2)CC1
tested.system: VIM-2 (Escherichia coli)
pIC50: 8.25

compound: NCC1CCN(c2ccc(S(=O)(=O)NC[C@@H](O)CN)c(S(N)(=O)=O)c2-c2nnn[nH]2)CC1
tested.system: VIM-2 (Escherichia coli)
pIC50: 8.68

compound: C[C@H](CN)NS(=O)(=O)c1ccc(N2CC[C@@H](CN)[C@@H](F)C2)c(-c2nn[nH]n2)c1S(N)(=O)=O (racemic)
tested.system: VIM-2 (Escherichia coli)
pIC50: 8.63

Give pIC50; test system VIM-2 (Escherichia coli); compound `COC1(CO)CCN(c2ccc(S(=O)(=O)NC[C@H](O)CN)c(S(N)(=O)=O)c2-c2nn[nH]n2)CC1`
8.57

====

target: VIM-2 (Escherichia coli); experiment: biochemical; settings: CCF2-FA fluorescence assay; read-out: VIM2 IC50
measurement.name: IC50
I'd appreciate it if you included the unit after the number.

Consider the worked cases shown below.
compound: NC[C@@H](O)CNS(=O)(=O)c1ccc(N2CCC(CNCCO)CC2)c(-c2nn[nH]n2)c1S(N)(=O)=O
IC50: 7.51 nM

compound: CC1(C)CN(c2ccc(S(=O)(=O)NC[C@H](O)CN)c(S(N)(=O)=O)c2-c2nn[nH]n2)CCN1CCO
IC50: 114 nM

compound: NS(=O)(=O)c1c(S(=O)(=O)N[C@@H]2CCNC2)ccc(N2CCC(F)(CO)CC2)c1-c1nnn[nH]1
IC50: 1.65 nM

compound: NCC1CCN(c2ccc(S(=O)(=O)N[C@H](CN)CO)c(S(N)(=O)=O)c2-c2nn[nH]n2)CC1
IC50: 68.7 nM

compound: NCC1CCN(c2ccc(S(=O)(=O)N[C@@H]3CCNC3)c(S(N)(=O)=O)c2-c2nn[nH]n2)C(=O)C1 (stereo partly shown)
IC50: 48.1 nM

compound: NC(=O)C1CCN(c2ccc(S(=O)(=O)N[C@@H]3CCNC3)c(S(N)(=O)=O)c2-c2nn[nH]n2)CCN1 (stereo partly shown)
IC50: 2.35 nM

Next item in the queue.
Name the recorded IC50 of the compound listed here: `NC[C@@H]1CCCN(c2ccc(S(=O)(=O)N[C@@H]3CCNC3)c(S(N)(=O)=O)c2-c2nnn[nH]2)C1`
3.01 nM

====

Structures can show the parent of a compound that is named as a salt.
Quick note: these are pIC50 numbers for system: IMP-1 (Serratia marcescens)
Sequence (P52699 whole entry, looked up, species assumed): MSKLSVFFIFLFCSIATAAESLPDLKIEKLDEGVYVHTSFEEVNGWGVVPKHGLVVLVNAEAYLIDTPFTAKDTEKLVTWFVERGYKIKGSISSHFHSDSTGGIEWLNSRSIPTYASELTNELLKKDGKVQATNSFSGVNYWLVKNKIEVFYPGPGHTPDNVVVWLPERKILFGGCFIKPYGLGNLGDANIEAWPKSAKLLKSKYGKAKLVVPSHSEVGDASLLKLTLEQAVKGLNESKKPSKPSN
As a rule, pIC50 stands for the negative log10 of the concentration, concentration in M.

Before answering, review these 3 worked examples.
compound: CN(C)C1(C)CN(c2ccc(S(=O)(=O)N[C@@H]3CCNC3)c(S(N)(=O)=O)c2-c2nnn[nH]2)C1
tested.system: IMP-1 (Serratia marcescens)
pIC50: 7.30
//
compound: NC[C@@H](O)CNS(=O)(=O)c1ccc(N2CCOC(CO)C2)c(-c2nn[nH]n2)c1S(N)(=O)=O (some centres unmarked)
tested.system: IMP-1 (Serratia marcescens)
pIC50: 8.82
//
compound: CN(C)[C@H]1CCN(c2ccc(S(=O)(=O)N[C@@H]3CCNC3)c(S(N)(=O)=O)c2-c2nnn[nH]2)C1
tested.system: IMP-1 (Serratia marcescens)
pIC50: 7.22

// fetch pIC50 for `N[C@@H]1CCN(c2ccc(S(=O)(=O)N[C@@H]3CCNC3)c(S(N)(=O)=O)c2-c2nn[nH]n2)C[C@@H]1F` ; system: IMP-1 (Serratia marcescens)
8.25

Under IMP-1 (Serratia marcescens): report pIC50 of `NC[C@@H](O)CNS(=O)(=O)c1ccc(Nc2ncc[nH]2)c(-c2nn[nH]n2)c1S(N)(=O)=O` .
7.58

# return pIC50 of `NCC1CCN(c2ccc(S(=O)(=O)N[C@@H](CN)CO)c(S(N)(=O)=O)c2-c2nn[nH]n2)CC1` (system: IMP-1 (Serratia marcescens))
9.11

Specify pIC50 for `NCC1CCN(c2ccc(S(=O)(=O)NC[C@@H](O)CN)c(S(N)(=O)=O)c2-c2nnn[nH]2)CC1` , system IMP-1 (Serratia marcescens).
8.52

# assay system IMP-1 (Serratia marcescens): give pIC50 of `NS(=O)(=O)c1c(S(=O)(=O)N[C@@H]2CCNC2)ccc(N2CCN(CCO)CC2)c1-c1nnn[nH]1`
8.68

GET pIC50 where system = IMP-1 (Serratia marcescens) and item = `NCCOC1CCN(c2ccc(S(=O)(=O)NC[C@H](O)CN)c(S(N)(=O)=O)c2-c2nn[nH]n2)CC1`
8.77

Give measured pIC50 for NCC1CCCN(c2ccc(S(=O)(=O)NC[C@H](O)CN)c(S(N)(=O)=O)c2-c2nn[nH]n2)CC1 (some centres unmarked) [Example 139, trifluoroacetate] (IMP-1 (Serratia marcescens)).
7.73

Give IMP-1 (Serratia marcescens) pIC50 for the following compound: `NC[C@@H](O)CNS(=O)(=O)c1ccc(N2C[C@H]3CNC[C@H]3C2)c(-c2nn[nH]n2)c1S(N)(=O)=O`
7.34

Find the measured pIC50 of `NS(=O)(=O)c1c(S(=O)(=O)N[C@@H]2CCNC2)ccc(N2CCC(CCF)CC2)c1-c1nnn[nH]1` with IMP-1 (Serratia marcescens) as test system.
9.62

Report the value of pIC50 obtained on IMP-1 (Serratia marcescens) for `CS(=O)(=O)CCN1CCN(c2ccc(S(=O)(=O)NC[C@H](O)CN)c(S(N)(=O)=O)c2-c2nn[nH]n2)CC1` .
9.26

Name the recorded pIC50 of NS(=O)(=O)c1c(S(=O)(=O)N[C@@H]2CCNC2)ccc(N2CCNC(CO)CC2)c1-c1nn[nH]n1 (some centres unmarked) , assay system IMP-1 (Serratia marcescens).
7.47
